Multi-source literature compilation: pIC50 on Matrix metalloproteinase-9 (Homo sapiens, UniProt P14780).
Sequence (P14780 whole entry): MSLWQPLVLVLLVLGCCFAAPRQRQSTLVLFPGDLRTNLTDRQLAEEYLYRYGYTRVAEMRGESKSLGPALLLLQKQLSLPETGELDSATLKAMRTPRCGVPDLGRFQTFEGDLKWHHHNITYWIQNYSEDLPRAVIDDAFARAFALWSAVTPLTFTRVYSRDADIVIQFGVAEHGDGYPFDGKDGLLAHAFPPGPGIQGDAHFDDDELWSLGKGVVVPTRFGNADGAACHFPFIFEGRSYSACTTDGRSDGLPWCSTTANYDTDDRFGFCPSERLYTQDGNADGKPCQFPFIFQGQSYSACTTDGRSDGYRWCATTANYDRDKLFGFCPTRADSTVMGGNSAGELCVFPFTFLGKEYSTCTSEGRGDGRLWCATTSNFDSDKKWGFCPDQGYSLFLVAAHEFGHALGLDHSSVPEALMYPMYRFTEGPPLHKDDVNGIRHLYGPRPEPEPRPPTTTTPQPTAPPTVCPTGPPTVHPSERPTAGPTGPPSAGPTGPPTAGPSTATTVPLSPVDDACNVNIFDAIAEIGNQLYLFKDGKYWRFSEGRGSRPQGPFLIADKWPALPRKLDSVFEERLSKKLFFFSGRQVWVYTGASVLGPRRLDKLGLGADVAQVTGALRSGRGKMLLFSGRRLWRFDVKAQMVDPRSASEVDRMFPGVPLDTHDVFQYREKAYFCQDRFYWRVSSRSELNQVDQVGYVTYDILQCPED
Value format note: pIC50 is -log10 of concentration (mol/L); just state the number.

In the examples that follow, each entry is paired with its recorded pIC50.
{"compound": "COc1ccc(-c2nnn(CCCOc3ccc(S(=O)(=O)C4(C(=O)NO)CCOCC4)cc3)n2)cc1", "pIC50": 5.96}
{"compound": "COC(=O)N1CC2(CC2)C[C@H](C(=O)NO)[C@H]1C(=O)N1CC=C(c2ccccc2)CC1", "pIC50": 6.37}
{"compound": "C[C@@H]1OC(C)(C)OC1[C@@H](CS(=O)(=O)c1ccc(Oc2ccc(OC(F)(F)F)cc2)cc1)N(O)C=O (stereo partly drawn)", "pIC50": 8.96}
{"compound": "Cc1ccc(C#Cc2ccc(S(=O)(=O)N[C@@H](C(=O)O)C(C)C)cc2)cc1", "pIC50": 5.92}
{"compound": "Cl.O=C(c1ccncc1)c1ccc(S(=O)(=O)CC(CCCc2ccccc2)C(=O)NO)cc1 (stereo not drawn)", "pIC50": 7.82}
{"compound": "COc1ccc(-c2ccc(S(=O)(=O)NC(C(=O)O)C3CCN(C(=O)OC(C)(C)C)CC3)cc2)cc1 (stereo not drawn)", "pIC50": 8.27}
{"compound": "CC(C)(C)NC(=O)c1nc(N)c(C(=O)NCCC(=O)N2CCC(C(=O)NO)(S(=O)(=O)c3ccc(Oc4ccc(OC(F)(F)F)cc4)cc3)CC2)nc1N", "pIC50": 8.39}
{"compound": "O=C(NO)[C@@H]1C[C@H](O)CN1C(=O)c1ccc(C#Cc2ccc(OCCCCCF)cc2)cc1", "pIC50": 6.97}
{"compound": "COc1ccc(S(=O)(=O)N(C)c2c(CN3CCN(C)CC3)cc(-c3ccc(OC(F)(F)F)cc3)cc2C(=O)NO)cc1", "pIC50": 8.70}
{"compound": "COc1ccc(S(=O)(=O)N2Cc3ccccc3N(C(=O)c3cc(F)ccc3C)CC2C(=O)NO)cc1 (stereo not drawn)", "pIC50": 8.40}

Summary line: COc1ccc(S(=O)(=O)N2CCSC(C)(C)[C@@H]2C(=O)NO)cc1 , Matrix metalloproteinase-9 (Homo sapiens, UniProt P14780), reported pIC50 = 9.05

Summary line: O=C(OCc1cc(F)c(F)cc1F)c1cccc(=S)[nH]1 , Matrix metalloproteinase-9 (Homo sapiens, UniProt P14780), reported pIC50 = 3.98

====

Multi-source literature compilation: pIC50 on Matrix metalloproteinase-9 (Homo sapiens, UniProt P14780).
Value format note: pIC50 is -log10 of concentration (mol/L); just state the number.

{"compound": "COc1ccc(-c2cnc(-c3ccc(S(=O)(=O)NC(CCC(=O)O)C(=O)O)cc3)s2)cc1 (stereo not drawn)", "testSystem": "Matrix metalloproteinase-9 (Homo sapiens, UniProt P14780)", "endpointValue": 7.30}

Summary line: CCCNC(=O)CC[C@H](NS(=O)(=O)c1ccc(-c2ccccc2)cc1)C(=O)O , Matrix metalloproteinase-9 (Homo sapiens, UniProt P14780), reported pIC50 = 4.95

Summary line: CCOc1ccc(Oc2ccc(S(=O)(=O)C3(C(=O)NO)CCN(C4CC4)CC3)cc2)cc1 , Matrix metalloproteinase-9 (Homo sapiens, UniProt P14780), reported pIC50 = 9.70

Summary line: O=C(NO)[C@H]1CC2(CC2)CN[C@@H]1C(=O)N1CCN(c2ccccc2)CC1 , Matrix metalloproteinase-9 (Homo sapiens, UniProt P14780), reported pIC50 = 6.19
